As shown below, each of these compounds has a reported EC50 value.
Target: Muscarinic acetylcholine receptor M4 (Homo sapiens, UniProt P08173)
Sequence (P08173 whole entry): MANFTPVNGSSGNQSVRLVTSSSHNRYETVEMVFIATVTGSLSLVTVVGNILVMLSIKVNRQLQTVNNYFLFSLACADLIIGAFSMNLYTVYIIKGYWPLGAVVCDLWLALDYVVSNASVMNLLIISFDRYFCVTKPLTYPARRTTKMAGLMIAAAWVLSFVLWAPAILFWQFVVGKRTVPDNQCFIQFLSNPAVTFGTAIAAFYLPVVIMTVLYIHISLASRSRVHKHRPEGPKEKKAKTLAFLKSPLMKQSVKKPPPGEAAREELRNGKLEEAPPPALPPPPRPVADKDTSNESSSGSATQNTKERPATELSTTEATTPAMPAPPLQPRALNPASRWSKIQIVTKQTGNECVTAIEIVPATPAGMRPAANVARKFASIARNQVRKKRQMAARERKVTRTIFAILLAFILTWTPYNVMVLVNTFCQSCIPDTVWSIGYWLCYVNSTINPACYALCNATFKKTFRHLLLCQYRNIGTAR
Experiment: Agonist activity at human Muscarinic acetylcholine receptor M4 expressed in HEK cells co-expressing Glosensor construct assessed as decrease in isoproterenol-induced cAMP accumulation incubated for 7 mins in presence of isoproterenol by Glosensor cAMP reagent/plate reader based luminescence assay
Type: functional, cell-based
ASSAY_READOUT: EC50 (µM)

>  <COMPOUND>
COc1cccnc1C1CCN(C2CCCN(c3nsnc3OC)CC2)CC1 (stereo not given)

>  <RESULT_UNIT>
µM

>  <CENSORING_QUALIFIER>
=

>  <READING>
2.51

$$$$
>  <COMPOUND>
CCNS(=O)(=O)N1CCCC(N2CCC(c3ncccc3OC)CC2)CC1 (stereo not given)

>  <RESULT_UNIT>
µM

>  <CENSORING_QUALIFIER>
>

>  <READING>
10

$$$$
>  <COMPOUND>
CCNC(=O)N1CCCC(N2CCC(c3ncccc3OC)CC2)CC1 (stereo not given)

>  <RESULT_UNIT>
µM

>  <CENSORING_QUALIFIER>
>

>  <READING>
5.99

$$$$
>  <COMPOUND>
CCOC(=O)N1CCC2(CC(N3C[C@@H]4[C@H](C3)[C@@H]4c3nccn3-c3ccccc3)C2)C1 (stereo not given in full)

>  <RESULT_UNIT>
µM

>  <CENSORING_QUALIFIER>
=

>  <READING>
0.003

$$$$
>  <COMPOUND>
c1ccc(-n2ccnc2[C@@H]2[C@@H]3CN(C4CC5(CCN(c6cnccn6)C5)C4)C[C@@H]32)cc1 (stereo not given in full)

>  <RESULT_UNIT>
µM

>  <CENSORING_QUALIFIER>
=

>  <READING>
0.007

$$$$
>  <COMPOUND>
COc1cccnc1C1CCN(C2CCCN(c3cnccn3)CC2)CC1 (stereo not given)

>  <RESULT_UNIT>
µM

>  <CENSORING_QUALIFIER>
=

>  <READING>
0.016

$$$$
>  <COMPOUND>
CCOC(=O)N1CCCC(N2CCC(c3ncccc3OC)CC2)CC1 (stereo not given)

>  <RESULT_UNIT>
µM

>  <CENSORING_QUALIFIER>
=

>  <READING>
0.011

$$$$
>  <COMPOUND>
CCOC(=O)N1CCC(CN2CCC(c3ncccc3OC)CC2)CC1

>  <RESULT_UNIT>
µM

>  <CENSORING_QUALIFIER>
=

>  <READING>
0.023

$$$$
>  <COMPOUND>
COc1cccnc1C1CCN(C2CCCN(C(=O)OC(C)C)CC2)CC1 (stereo not given)

>  <RESULT_UNIT>
µM

>  <CENSORING_QUALIFIER>
>

>  <READING>
9.25

$$$$
>  <COMPOUND>
COc1cccnc1C1CCN(C2CCCN(c3nc(C)cs3)CC2)CC1 (stereo not given)

>  <RESULT_UNIT>
µM

>  <CENSORING_QUALIFIER>
>

>  <READING>
2.74

$$$$

###

Target: Muscarinic acetylcholine receptor M4 (Homo sapiens) (UniProt P08173)
Sequence (whole entry): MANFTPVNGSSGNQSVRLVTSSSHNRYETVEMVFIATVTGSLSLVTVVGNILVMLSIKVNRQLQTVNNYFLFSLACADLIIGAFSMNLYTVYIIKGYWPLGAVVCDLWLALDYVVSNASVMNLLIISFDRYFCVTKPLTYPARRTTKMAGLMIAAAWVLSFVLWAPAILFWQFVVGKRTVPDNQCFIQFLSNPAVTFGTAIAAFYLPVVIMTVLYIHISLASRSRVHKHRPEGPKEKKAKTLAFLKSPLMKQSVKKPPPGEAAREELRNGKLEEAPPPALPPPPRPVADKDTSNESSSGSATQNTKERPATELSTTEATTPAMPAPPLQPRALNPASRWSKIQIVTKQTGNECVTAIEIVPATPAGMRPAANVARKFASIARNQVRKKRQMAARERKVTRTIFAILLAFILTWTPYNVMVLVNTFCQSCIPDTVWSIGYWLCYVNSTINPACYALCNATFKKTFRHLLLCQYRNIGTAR
Assay: Positive allosteric modulatory activity at human Muscarinic acetylcholine receptor M4 expressed in HEK cells co-expressing Glosensor construct assessed as as increase in acteylcholine-induced cAMP accumulation at 10 uM to 0.3 nM incubated for 7 mins in presence of isoproterenol/acetylcholine by Glosensor cAMP reagent/plate reader based luminescence assay relative to acetylcholine
Assay type: functional, cell-based

>  <MOLECULE>
O=C1CCCN1CC#CCN1CCCC1

>  <Emax / %>
90.7

$$$$
>  <MOLECULE>
COc1cccnc1C1CCN(C2CCCN(c3cnccn3)CC2)CC1 (centres undefined)

>  <Emax / %>
95.9

$$$$
>  <MOLECULE>
CCCCCCOc1nsnc1C1=CCCN(C)C1

>  <Emax / %>
100

$$$$
>  <MOLECULE>
COc1cccnc1C1CCN(C2CCCN(c3cccnc3)CC2)CC1 (centres undefined)

>  <Emax / %>
80

$$$$

###

pEC50 values, listed per item
biological target: Muscarinic acetylcholine receptor M4 (Homo sapiens); assay: Positive allosteric modulatory activity at human Muscarinic acetylcholine receptor M4 expressed in HEK cells co-expressing Glosensor construct assessed as as […] in acteylcholine-induced cAMP accumulation incubated for 7 mins in presence of isoproterenol/acetylcholine by Glosensor cAMP reagent/plate reader based luminescence assay; format: functional, cell-based
pEC50: −log10 of the molar value.

>  <MOLECULE>
COc1cccnc1C1CCN(C2CCCN(c3nccnc3C)CC2)CC1 (stereo unspecified)

>  <EXPERIMENTAL_TARGET>
Muscarinic acetylcholine receptor M4 (Homo sapiens)

>  <CENSORING_QUALIFIER>
=

>  <pEC50>
5.47

$$$$
>  <MOLECULE>
COc1cccnc1C1CCN(C2CCCN(c3cnccn3)CC2)CC1 (stereo unspecified)

>  <EXPERIMENTAL_TARGET>
Muscarinic acetylcholine receptor M4 (Homo sapiens)

>  <CENSORING_QUALIFIER>
=

>  <pEC50>
7.60

$$$$
>  <MOLECULE>
COc1cccnc1C1CCN(C2CCCN(c3ccncc3)CC2)CC1 (stereo unspecified)

>  <EXPERIMENTAL_TARGET>
Muscarinic acetylcholine receptor M4 (Homo sapiens)

>  <CENSORING_QUALIFIER>
<

>  <pEC50>
5.00

$$$$
>  <MOLECULE>
COc1cccnc1C1CCN(C2CCCN(c3cccnn3)CC2)CC1 (stereo unspecified)

>  <EXPERIMENTAL_TARGET>
Muscarinic acetylcholine receptor M4 (Homo sapiens)

>  <CENSORING_QUALIFIER>
<

>  <pEC50>
5.00

$$$$
>  <MOLECULE>
COc1cccnc1C1CCN(C2CCCN(c3cccnc3)CC2)CC1 (stereo unspecified)

>  <EXPERIMENTAL_TARGET>
Muscarinic acetylcholine receptor M4 (Homo sapiens)

>  <CENSORING_QUALIFIER>
=

>  <pEC50>
5.00

$$$$
>  <MOLECULE>
COc1cccnc1C1CCN(C2CCCN(c3cncc(C)n3)CC2)CC1 (stereo unspecified)

>  <EXPERIMENTAL_TARGET>
Muscarinic acetylcholine receptor M4 (Homo sapiens)

>  <CENSORING_QUALIFIER>
<

>  <pEC50>
5.00

$$$$

###

test system: mouse BCRP; test: Efflux ratio of permeability across basolateral to apical over apical to basolateral in Doxycycline induced dog MDCK cells transfected with mouse BCRP; type: ADME, cell-based, Canis lupus familiaris
ASSAY_READOUT: efflux ratio

>  <SMI>
COc1cccnc1C1CCN(CC2CCN(c3cnccn3)CC2)CC1

>  <EXPERIMENTAL_TARGET>
mouse BCRP

>  <ASSAY_READOUT>
efflux ratio

>  <READING>
1.62

$$$$
